MIC Streptococcus agalactiae (GC 4564) by entry:
# Tested on: Streptococcus sp.
# Protocol summary: in vitro antibacterial evaluation, MIC by broth dilution
# Assay type: cell-based
# Experimental conditions: broth dilution, inoculum 5×10^5 CFU/mL, 18 hours at 35° C.; strain GC 4564

Compound | Bound operator | MIC Streptococcus agalactiae (GC 4564), µg/mL
Cc1ccc(Oc2cccc(C3OCC4OC(OC5C(CO)OC(Oc6ccc(CC7NC(=O)C(C(C)c8ccccc8)NC(=O)CNC(=O)C(CO)NC(=O)C(C(O)C8CNC(=N)N8C8OC(CO)C(O)C(O)C8O)NC(=O)C(C(O)C8CNC(=N)N8)NC7=O)cc6I)C(O)C5O)C(O)C(O)C4O3)c2)cc1 (stereo not shown) | = | 16
CC(c1ccccc1)C1NC(=O)CNC(=O)C(CO)NC(=O)C(C(O)C2CNC(=N)N2C2OC(CO)C(O)C(O)C2O)NC(=O)C(C(O)C2CNC(=N)N2)NC(=O)C(Cc2ccc(OC3OC(CO)C(OC4OC5COC(c6ccc(Oc7ccc(C(C)(C)C)cc7)cc6)OC5C(O)C4O)C(O)C3O)cc2)NC1=O (stereo not shown) | < | 0.06
CC(C1CCCCC1)C1NC(=O)CNC(=O)C(CO)NC(=O)C(C(O)C2CNC(=N)N2C2OC(CO)C(O)C(O)C2O)NC(=O)C(C(O)C2CNC(=N)N2)NC(=O)C(Cc2ccc(OC3OC(CO)C(OC4OC5COC(c6ccccc6)OC5C(O)C4O)C(O)C3O)cc2)NC1=O (stereo not shown) | < | 0.12
CCOc1cc(COCC2OC(OC3C(CO)OC(Oc4ccc(CC5NC(=O)C(C(C)c6ccccc6)NC(=O)CNC(=O)C(CO)NC(=O)C(C(O)C6CNC(=N)N6C6OC(CO)C(O)C(O)C6O)NC(=O)C(C(O)C6CNC(=N)N6)NC5=O)cc4)C(O)C3O)C(O)C(O)C2O)ccc1OC (stereo not shown) | = | 2
CCCC(C)C1OCC2OC(OC3C(CO)OC(Oc4ccc(CC5NC(=O)C(C(C)c6ccc(Cl)cc6)NC(=O)CNC(=O)C(CO)NC(=O)C(C(O)C6CNC(=N)N6C6OC(CO)C(O)C(O)C6O)NC(=O)C(C(O)C6CNC(=N)N6)NC5=O)cc4)C(O)C3O)C(O)C(O)C2O1 (stereo not shown) | < | 0.06
CC(c1ccccc1)C1NC(=O)CNC(=O)C(CO)NC(=O)C(CC2CNC(=N)N2C2OC(CO)C(O)C(O)C2O)NC(=O)C(CC2CNC(=N)N2)NC(=O)C(Cc2ccc(OC3OC(CO)C(OC4OC5COC(c6ccc(OCc7ccccc7)cc6)OC5C(O)C4O)C(O)C3O)cc2)NC1=O (stereo not shown) | = | 2
